Experiment: Visual solubility of Compound A, Form I in solvents
Type: physicochemical
Settings: IPA (isopropyl alcohol), organic solvent or mixture, thermodynamic from solid; IPA; 50 mg in 10 mL, stirred, heated to 40° C.
Measurement type: solubility

1. CC1(C)CC=C(c2nc(C3CC(C)(C)OC(C)(C)C3)ccc2NC(=O)c2nc(C#N)c[nH]2)CC1 [Compound A, Form I] = > 5000 µg/mL

----------
Experiment: Visual solubility of Compound A, Form I in solvents
Assay type: physicochemical
Conditions: organic solvent or mixture, thermodynamic from solid; Methanol; 50 mg in 10 mL, stirred, heated to 40° C.
Measurement type: solubility

1. CC1(C)CC=C(c2nc(C3CC(C)(C)OC(C)(C)C3)ccc2NC(=O)c2nc(C#N)c[nH]2)CC1 [Compound A, Form I] = > 5000 µg/mL

// data source = patent US10314821B2
